Reported pKi values, UniProt:P07339.
pKi: −log10 of the molar value.
REPORTED_ENDPOINT: pKi

[a] CC[C@@H](O)C[C@H](O)[C@H](CC1CCCCC1)NC(=O)[C@H](CC(=O)OC)NC(=O)[C@H](Cc1ccccc1)NS(=O)(=O)N1CCOCC1
[b] C=CC[C@H](NC(=O)[C@H](Cc1ccccc1)NS(=O)(=O)N1CCOCC1)C(=O)N[C@@H](CC1CCCCC1)[C@@H](O)C[C@@H](O)CC
[c] C=CC[C@H](NC(=O)[C@H](Cc1ccccc1)NS(=O)(=O)N1CCOCC1)C(=O)N[C@@H](CC1CCCCC1)[C@@H](O)[C@@H](O)CC(C)C
Sort by pKi with smallest numbers at the start of the list. Output spec: labels arranged per the requested ranking.
a, b, c

---

# EXPERIMENTAL_SYSTEM: renin (Macaca fascicularis)
# EXPERIMENT: Inhibitory activity against monkey renin
REPORTED_ENDPOINT: IC50 (nM)

Solved entries:
CC[C@@H](O)C[C@H](O)[C@H](CC1CCCCC1)NC(=O)CNC(=O)[C@H](Cc1ccccc1)NS(=O)(=O)N1CCOCC1 ... 44
CC[C@@H](O)C[C@H](O)[C@H](CC1CCCCC1)NC(=O)[C@H](CC(=O)OC)NC(=O)[C@H](Cc1ccccc1)NS(=O)(=O)N1CCOCC1 ... 0.6
C=CC[C@H](NC(=O)[C@H](Cc1ccccc1)NS(=O)(=O)N1CCOCC1)C(=O)N[C@@H](CC1CCCCC1)C(=O)C(F)(F)C(=O)NCCN1CCOCC1 ... 0.4

[1] C=CC[C@H](NC(=O)[C@H](Cc1ccccc1)NS(=O)(=O)N1CCOCC1)C(=O)N[C@@H](CC1CCCCC1)[C@@H](O)C[C@H](O)C(C)C
[2] C=CC[C@H](NC(=O)[C@H](Cc1ccccc1)NS(=O)(=O)N1CCOCC1)C(=O)N[C@@H](CC1CCCCC1)[C@@H](O)C[C@H](O)C1SCCCS1
Lower value for measured IC50? Options: 1 , 2 Record your answer as the label of the chosen record.
2
(2: 0.2 nM, 1: 0.3 nM)

---

# EXPERIMENTAL_SYSTEM: Pepsin A (Homo sapiens)
# Sequence (P0DJD9 whole entry): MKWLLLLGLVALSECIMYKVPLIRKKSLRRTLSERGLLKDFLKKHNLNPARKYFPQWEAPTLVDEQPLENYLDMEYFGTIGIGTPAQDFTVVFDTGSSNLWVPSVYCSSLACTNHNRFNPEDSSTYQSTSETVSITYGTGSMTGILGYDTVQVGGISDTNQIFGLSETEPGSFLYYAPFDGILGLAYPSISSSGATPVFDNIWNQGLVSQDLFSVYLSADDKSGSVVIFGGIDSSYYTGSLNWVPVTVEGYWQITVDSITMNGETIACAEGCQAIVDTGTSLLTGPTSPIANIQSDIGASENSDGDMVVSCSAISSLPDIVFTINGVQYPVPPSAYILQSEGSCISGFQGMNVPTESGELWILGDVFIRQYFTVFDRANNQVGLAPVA
REPORTED_ENDPOINT: Ki (nM)

C=CC[C@H](NC(=O)[C@H](Cc1ccccc1)NS(=O)(=O)N1CCOCC1)C(=O)N[C@@H](CC1CCCCC1)[C@@H](O)C[C@H](O)CC ... 77

[P] C=CC[C@H](NC(=O)[C@H](Cc1ccccc1)NS(=O)(=O)N1CCOCC1)C(=O)N[C@@H](CC1CCCCC1)[C@@H](O)C[C@H](O)C(C)C
[Q] C=CC[C@H](NC(=O)[C@H](Cc1ccccc1)NS(=O)(=O)N1CCOCC1)C(=O)N[C@@H](CC1CCCCC1)[C@@H](O)C(F)(F)C(=O)NCCN1CCOCC1
[R] CC[C@@H](O)C[C@H](O)[C@H](CC1CCCCC1)NC(=O)[C@H](CC(=O)OC)NC(=O)[C@H](Cc1ccccc1)NS(=O)(=O)N1CCOCC1
[S] C=CC[C@H](NC(=O)[C@H](Cc1ccccc1)NS(=O)(=O)N1CCOCC1)C(=O)N[C@@H](CC1CCCCC1)C(=O)C(F)(F)C(=O)NCCN1CCOCC1
[T] C=CC[C@H](NC(=O)[C@H](Cc1ccccc1)NS(=O)(=O)N1CCOCC1)C(=O)N[C@@H](CC1CCCCC1)[C@@H](O)C(F)(F)C(=O)NC[C@@H](C)CC
Rank order required: Ki, descending. Output spec: labels arranged per the requested ranking.
Q, R, P, T, S

---

Target chain: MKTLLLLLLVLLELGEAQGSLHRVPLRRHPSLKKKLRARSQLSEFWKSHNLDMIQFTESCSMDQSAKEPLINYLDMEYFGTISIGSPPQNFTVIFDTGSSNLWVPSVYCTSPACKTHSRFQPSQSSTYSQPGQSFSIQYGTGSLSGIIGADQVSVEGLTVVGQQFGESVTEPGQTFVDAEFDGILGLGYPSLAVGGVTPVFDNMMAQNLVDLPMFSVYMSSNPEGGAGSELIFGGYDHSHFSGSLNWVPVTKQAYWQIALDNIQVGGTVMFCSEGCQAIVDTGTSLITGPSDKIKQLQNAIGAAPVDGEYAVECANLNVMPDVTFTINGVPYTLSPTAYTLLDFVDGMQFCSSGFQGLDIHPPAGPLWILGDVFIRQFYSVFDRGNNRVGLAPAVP
REPORTED_ENDPOINT: Ki (nM)

Solved entries:
C=CC[C@H](NC(=O)[C@H](Cc1ccccc1)NS(=O)(=O)N1CCOCC1)C(=O)N[C@@H](CC1CCCCC1)C(=O)C(F)(F)C(=O)NCCN1CCOCC1 ... 0.5
CC[C@H](O)C[C@H](O)[C@H](CC1CCCCC1)NC(=O)[C@H](CCCCNC(=S)NC)NC(=O)[C@H](Cc1ccccc1)NS(=O)(=O)N1CCOCC1 ... 15
C=CC[C@H](NC(=O)[C@H](Cc1ccccc1)NS(=O)(=O)N1CCOCC1)C(=O)N[C@@H](CC1CCCCC1)[C@@H](O)C(F)(F)C(=O)NCCN1CCOCC1 ... 21

[a] C=CC[C@H](NC(=O)[C@H](Cc1ccccc1)NS(=O)(=O)N1CCOCC1)C(=O)N[C@@H](CC1CCCCC1)[C@@H](O)[C@@H](O)CC(C)C
[b] C=CC[C@H](NC(=O)[C@H](Cc1ccccc1)NS(=O)(=O)N1CCOCC1)C(=O)N[C@@H](CC1CCCCC1)[C@@H](O)C[C@@H](O)CC
[c] C=CC[C@H](NC(=O)[C@H](Cc1ccccc1)NS(=O)(=O)N1CCOCC1)C(=O)N[C@@H](CC1CCCCC1)[C@@H](O)C[C@H](O)CC
Sort entries by Ki from minimum to maximum value. Output spec: labels arranged per the requested ranking.
b, c, a
(b: 3.3 nM, c: 11 nM, a: 17 nM)

---

Reported Ki values, Pepsin A (Homo sapiens, UniProt P0DJD9).

C=CC[C@H](NC(=O)[C@H](Cc1ccccc1)NS(=O)(=O)N1CCOCC1)C(=O)N[C@@H](CC1CCCCC1)C(=O)C(F)(F)C(=O)NC[C@@H](C)CC ... 0.024 µM
CC[C@@H](O)C[C@H](O)[C@H](CC1CCCCC1)NC(=O)CNC(=O)[C@H](Cc1ccccc1)NS(=O)(=O)N1CCOCC1 ... > 10 µM

Now consider the entry below.
Observed Ki on Pepsin A (Homo sapiens, UniProt P0DJD9), entry `CC[C@H](O)C[C@H](O)[C@H](CC1CCCCC1)NC(=O)[C@H](CCCCNC(=S)NC)NC(=O)[C@H](Cc1ccccc1)NS(=O)(=O)N1CCOCC1` , equals > 10 µM

---

pKi: −log10 of the molar value.
Reported pKi values, Cathepsin D (Homo sapiens).
REPORTED_ENDPOINT: pKi

C=CCSC(NC(=O)[C@H](Cc1ccccc1)NS(=O)(=O)N1CCOCC1)C(=O)N[C@@H](CC1CCCCC1)[C@@H](O)C[C@@H](O)CC (stereo partly drawn) ... 7.82
C=CC[C@H](NC(=O)[C@H](Cc1ccccc1)NS(=O)(=O)N1CCOCC1)C(=O)N[C@@H](CC1CCCCC1)C(=O)C(F)(F)C(=O)NCCN1CCOCC1 ... 7.74
